# TGT: SARS-CoV-2 Papain-like (PLpro) protease (Severe acute respiratory syndrome coronavirus 2)
# ASSAY NOTES: SARS-CoV-2 Papain-like (PLpro) protease biochemical enzyme inhibition assay (ubiquitin-fluorophore substrate, Ub-R110)
# EXPERIMENTAL CONDITIONS: Ub-R110 substrate; run in duplicate; read-out: PLpro IC50
READOUT KIND: IC50

Problem: Which IC50 is listed for Cc1nn(C)cc1-c1cc(Cl)cc(C2(NC(=O)c3ccccc3CNC(=O)C(=O)NCC#Cc3nccs3)CC2)c1 ?
Solution: < 100 nM

Problem: Another molecule: C[C@@H](C#Cc1ccc(F)cc1C#N)NC(=O)C(=O)NCc1ccccc1C(=O)NC1(c2ccc3nn(C)cc3c2)CC1
Solution: 100 to 1000 nM

Problem: Next molecule up: O=C(NCC#Cc1nccs1)C(=O)NCc1ccccc1C(=O)NC1(c2cc(Cl)cc(-c3cc4ccccc4s3)c2)CC1
Solution: < 100 nM

Problem: Same read-out for Cc1nn(C2CC2)c(C)c1-c1cc(Cl)cc(C2(NC(=O)c3ccccc3CNC(=O)C(=O)NCC#N)CC2)c1 ?
Solution: < 100 nM

Problem: Please do the same for N#CN1CC[C@H]1CNC(=O)C(=O)NCc1ccccc1C(=O)NC1(c2cccc3ccccc23)CC1 as well.
Solution: < 100 nM

Problem: Query N#CN1CCC[C@H]1CNC(=O)C(=O)NCc1ccccc1C(=O)NC1(c2cccc3ccccc23)CC1 next
Solution: < 100 nM

Problem: Now give it for C#CCNC(=O)C(=O)NCc1ccccc1C(=O)NC1(c2cc(Cl)cc(-c3cc4ccccc4s3)c2)CC1 too.
Solution: < 100 nM

Problem: What would you report for CN1CCC1COc1ccc(CNC(=O)C(=O)NCC#N)c(C(=O)NC2(c3cccc4ccccc34)CC2)c1 (centres unmarked) ?
Solution: < 100 nM

Problem: And C#CCNC(=O)C(=O)NCc1ccccc1C(=O)NC1(c2cc(F)cc(-c3cnn(C4CC4)c3)c2)CC1 ?
Solution: < 100 nM

Problem: What would you report for N#CCNC(=O)C(=O)NCc1ccccc1C(=O)NC1(c2cc(F)c(F)c(-c3cccs3)c2)CC1 ?
Solution: < 100 nM

Problem: Next molecule up: C[C@@H](C#Cc1ncco1)NC(=O)C(=O)NCc1ccccc1C(=O)NC1(c2cc(F)cc(-c3cnn(C4CC4)c3)c2)CC1
Solution: 1000 to 10000 nM

Problem: # repeat for C[C@@H](NC(=O)c1ccccc1CNC(=O)C(=O)NC/C=C/C(=O)N1CCCNC(=O)C1)c1cccc2ccccc12
Solution: 100 to 1000 nM

Problem: Lookup COC(=O)/C=C/CNC(=O)C(=O)NCc1c(F)cc(F)cc1C(=O)N[C@H](C)c1cccc2ccccc12
Solution: 100 to 1000 nM

Problem: Now the molecule CC(C)n1ccnc1C#CCNC(=O)C(=O)NCc1ccccc1C(=O)NC1(c2cc(F)cc(-c3cnn(C4CC4)c3)c2)CC1
Solution: < 100 nM
